tested on: Candida albicans SNY425 biofilm; experiment: biofilm OD600 relative to DMSO control (fraction of DMSO control); higher = more biofilm (less inhibition); conditions: 200 µM; assay detail: sustained inhibition (MBIC series), 384-well, compound during adherence and 24 h growth
Where a name gives a salt, the structure may show the parent alone.
Label rule, in plain words: biofilm OD600 of 0.6 and up is met, under 0.6 is not met.

Use these answered entries as a reference point.
molecule | tgt | assigned-label
CCN(CC)C(=S)SSC(=S)N(CC)CC [disulfiram] | Candida albicans SNY425 biofilm | not met
Fc1ccc([C@@H]2CCNC[C@H]2COc2ccc3c(c2)OCO3)cc1 [paroxetine hydrochloride] | Candida albicans SNY425 biofilm | not met
COC(=O)C1=C(C)NC(C)=C(C(=O)OCC(C)C)C1c1ccccc1[N+](=O)[O-] (stereo not drawn) [nisoldipine] | Candida albicans SNY425 biofilm | not met
COCCCOc1ccnc(C[S+]([O-])c2nc3ccccc3[nH]2)c1C (stereo not drawn) [rabeprazole sodium] | Candida albicans SNY425 biofilm | met
Nc1nc(=O)[nH]cc1F [flucytosine] | Candida albicans SNY425 biofilm | met

Dear colleague, could you confirm whether C[C@@H]1CC[C@H]2[C@@H](C)C(=O)O[C@@H]3O[C@@]4(C)CC[C@@H]1[C@]32OO4 [artemisinin] has biofilm OD600 at or above 0.6?
met

Entry Clc1ccc(C(Cn2ccnc2)OCc2ccsc2Cl)c(Cl)c1 (stereo not drawn) [tioconazole] : is its biofilm OD600 no less than 0.6?
not met

// inclusive: biofilm OD600 at least 0.6? input: Cc1cccc(Nc2ccccc2C(=O)O)c1C [mefenamic acid]
met
